Reference for the values: patent US10239835B2

Property: IC50; scope: individual molecules
biological target: HEK293 cells expressing NR1/NR2B (Homo sapiens (Human), UniProt Q05586+Q13224); experiment: NR2B NAM Assay (FDSS Ca2+ influx cell assay); conditions: NR2B NAM assay, class of inhibitory concentration; read-out: Activity Category
Sequence (Q13224 27-1484, other chains not shown): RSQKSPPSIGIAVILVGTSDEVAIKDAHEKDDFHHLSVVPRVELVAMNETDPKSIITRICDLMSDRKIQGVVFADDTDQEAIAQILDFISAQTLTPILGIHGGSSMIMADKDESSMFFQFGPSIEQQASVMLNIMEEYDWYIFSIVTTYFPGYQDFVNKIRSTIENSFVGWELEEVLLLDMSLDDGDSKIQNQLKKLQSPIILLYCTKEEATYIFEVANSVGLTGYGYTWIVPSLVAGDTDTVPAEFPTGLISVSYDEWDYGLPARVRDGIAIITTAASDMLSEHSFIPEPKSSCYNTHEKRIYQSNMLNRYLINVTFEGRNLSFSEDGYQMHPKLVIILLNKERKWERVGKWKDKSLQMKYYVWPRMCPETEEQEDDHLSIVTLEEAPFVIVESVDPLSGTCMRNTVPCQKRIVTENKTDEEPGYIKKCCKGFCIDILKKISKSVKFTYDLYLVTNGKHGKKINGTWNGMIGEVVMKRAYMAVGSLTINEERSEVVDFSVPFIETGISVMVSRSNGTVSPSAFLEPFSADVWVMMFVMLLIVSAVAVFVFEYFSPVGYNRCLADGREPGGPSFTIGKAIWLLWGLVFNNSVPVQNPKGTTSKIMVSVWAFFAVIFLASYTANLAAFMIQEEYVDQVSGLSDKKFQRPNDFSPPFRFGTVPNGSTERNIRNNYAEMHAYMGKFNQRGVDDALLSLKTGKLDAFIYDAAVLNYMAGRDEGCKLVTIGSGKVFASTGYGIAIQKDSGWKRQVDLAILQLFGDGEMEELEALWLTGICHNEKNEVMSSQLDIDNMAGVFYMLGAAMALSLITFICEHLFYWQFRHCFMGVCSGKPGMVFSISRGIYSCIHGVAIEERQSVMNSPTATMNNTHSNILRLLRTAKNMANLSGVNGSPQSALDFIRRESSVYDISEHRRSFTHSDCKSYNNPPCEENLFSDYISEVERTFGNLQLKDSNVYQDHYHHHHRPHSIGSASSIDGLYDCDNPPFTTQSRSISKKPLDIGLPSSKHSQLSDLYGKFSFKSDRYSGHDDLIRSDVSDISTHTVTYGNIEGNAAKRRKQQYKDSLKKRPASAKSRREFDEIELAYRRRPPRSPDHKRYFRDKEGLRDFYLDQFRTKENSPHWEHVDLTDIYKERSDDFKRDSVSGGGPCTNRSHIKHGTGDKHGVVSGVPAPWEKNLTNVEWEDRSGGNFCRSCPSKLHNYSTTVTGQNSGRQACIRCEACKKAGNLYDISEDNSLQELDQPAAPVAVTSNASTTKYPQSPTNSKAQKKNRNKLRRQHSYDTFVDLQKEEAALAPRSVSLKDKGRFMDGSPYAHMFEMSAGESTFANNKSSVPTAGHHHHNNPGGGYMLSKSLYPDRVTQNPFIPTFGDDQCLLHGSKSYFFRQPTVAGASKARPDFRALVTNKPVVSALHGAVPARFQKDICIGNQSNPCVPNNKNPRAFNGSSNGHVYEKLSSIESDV

The following molecules have reported results that may help.
1) Cc1ncccc1O[C@H]1C[C@@H]2CN(CC(O)c3ccc(O)cc3)C[C@@H]2C1 (some centres unmarked)    100 to 1000 nM
2) O=C(CN1C[C@H]2C[C@H](Oc3ccc(F)c(F)c3)C[C@H]2C1)c1ccc(O)cn1    1000 to 10000 nM
3) N#Cc1ccc(O[C@@H]2C[C@@H]3CN(CC(=O)c4ccc(O)cn4)C[C@@H]3C2)cc1    > 10000 nM

// query Under HEK293 cells expressing NR1/NR2B (Homo sapiens (Human), UniProt Q05586+Q13224): IC50 value of "Cc1ccc(O[C@H]2C[C@@H]3CN(CC(=O)c4ccc(O)cn4)C[C@@H]3C2)c(F)n1" ?
// result > 10000 nM

// query // lookup IC50 | system=HEK293 cells expressing NR1/NR2B (Homo sapiens (Human), UniProt Q05586+Q13224) | key= Oc1ccc(C(O)CN2C[C@H]3C[C@H](Oc4ccccc4)C[C@H]3C2)cc1 (some centres unmarked)
// result < 100 nM

// query // fetch HEK293 cells expressing NR1/NR2B (Homo sapiens (Human), UniProt Q05586+Q13224) IC50 for COc1cccc(F)c1O[C@H]1C[C@@H]2CN(CC(O)c3ccc(O)cc3)C[C@@H]2C1 (some centres unmarked)
// result 100 to 1000 nM

// query Quick check: IC50 on HEK293 cells expressing NR1/NR2B (Homo sapiens (Human), UniProt Q05586+Q13224), item Oc1ccc(C(O)CN2C[C@H]3C[C@@H](Oc4ccc(F)c(F)c4)C[C@H]3C2)cc1 (some centres unmarked) ?
// result < 100 nM

// query GET /values?readout=IC50&system=HEK293 cells expressing NR1/NR2B (Homo sapiens (Human), UniProt Q05586+Q13224)&item= COc1ccc(O[C@H]2C[C@@H]3CN(CC(O)c4ccc(O)c(F)c4)C[C@@H]3C2)cc1 (some centres unmarked)
// result < 100 nM
